# Tested on: MDA-MB-231
# assay: Antiproliferative activity against human MDA-MB-231 cells assessed as reduction in cell growth measured after 2 days by CCK8 assay
# Assay type: functional, cell-based
# appliedConditions: MDA-MB-231, 48 h
measurementType: IC50

Entry CC(C)(F)CN1CCc2cc(O)ccc2C1c1ccc(OCCCCCCC(=O)NO)cc1 (stereo unspecified) , IC50 reported as 0.38 µM

* * *

Provide the recorded half-life for the entries that follow.
# assay: Stability in human liver microsomes assessed as half life
# Type: ADME, Microsome
Give the value; after it, write the unit.

The reported value for C[C@]12CC[C@@H]3c4ccc(O)cc4C[C@@H](CCCCCCCCC[S+]([O-])CCCC(F)(F)C(F)(F)F)[C@H]3[C@@H]1CC[C@@H]2O (some centres not stated) in terms of half-life is 1.56 min

Recorded half-life (compound CC(C)(F)CN1CCc2cc(O)ccc2C1c1ccc(OCCCCCCC(=O)NO)cc1 (configuration not stated) ): 18.8 min
